- experimentalSystem: MC5R (Homo sapiens, UniProt P33032)
- Sequence (P33032 whole entry): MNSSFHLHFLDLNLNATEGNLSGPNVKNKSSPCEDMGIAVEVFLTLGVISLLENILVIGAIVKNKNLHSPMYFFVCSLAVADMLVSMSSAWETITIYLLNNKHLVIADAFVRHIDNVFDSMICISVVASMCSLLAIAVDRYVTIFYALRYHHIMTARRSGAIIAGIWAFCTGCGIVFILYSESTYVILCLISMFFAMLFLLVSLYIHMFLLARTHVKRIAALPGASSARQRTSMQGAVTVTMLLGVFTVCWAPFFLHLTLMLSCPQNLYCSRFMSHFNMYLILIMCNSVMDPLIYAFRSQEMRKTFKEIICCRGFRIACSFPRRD
- assayText: cAMP assay (β-galactosidase reporter, cAMP Hunter), MC5R
- Type: cell-based
- reportedConditions: agonist cAMP stimulation; read-out: cAMP Assay (EC-50) MC5R
Bridge positions count the residues as written; N and C are the ends. Square brackets hold non-standard residues; d marks the D form. Peptide text beside a SMILES is read from it. hCys = N[C@@H](CCS)C(=O)O
pEC50 overview
API: returns pEC50 as number; meaning -log10 of concentration in mol/L.

Before answering, review these 3 worked examples.
>  <compound>
CC(=O)N[C@@H](CCCNC(=N)N)C(=O)N[C@H]1CSSC[C@@H](C(N)=O)NC(=O)[C@H](Cc2c[nH]c3ccccc23)NC(=O)[C@H](CCCNC(=N)N)NC(=O)[C@@H](Cc2ccccc2)NC(=O)[C@@H]2CCCN2C(=O)[C@@H](C)NC1=O [Compound 13] (Ac-RC[dA]P[dF]RWC-NH2; disulfide 2-8)

>  <pEC50>
6.15

$$$$
>  <compound>
CC(=O)N[C@@H](CCCNC(=N)N)C(=O)N[C@H]1CCSSC[C@@H](C(N)=O)NC(=O)[C@H](Cc2c[nH]c3ccccc23)NC(=O)[C@H](CCCNC(=N)N)NC(=O)[C@@H](Cc2ccccc2)NC(=O)[C@H](C)NC1=O [Compound 15] (Ac-R[hCys]A[dF]RWC-NH2; disulfide 2-7)

>  <pEC50>
7.38

$$$$
>  <compound>
CC(=O)N[C@@H](CCCNC(=N)N)C(=O)N[C@H]1CSSC[C@@H](C(N)=O)NC(=O)[C@H](Cc2c[nH]c3ccccc23)NC(=O)[C@H](CCCNC(=N)N)NC(=O)[C@@H](Cc2ccccc2)NC(=O)[C@H](Cc2c[nH]c3ccccc23)NC(=O)[C@@H](C)NC1=O [Compound 7] (Ac-RC[dA]W[dF]RWC-NH2; disulfide 2-8)

>  <pEC50>
6.59

$$$$

Supply recorded pEC50 for `CC(=O)N[C@@H](CCCNC(=N)N)C(=O)N[C@H]1CSSC[C@@H](C(N)=O)NC(=O)[C@H](Cc2c[nH]c3ccccc23)NC(=O)[C@H](CCCNC(=N)N)NC(=O)[C@@H](Cc2ccccc2)NC(=O)[C@H](Cc2c[nH]cn2)NC(=O)[C@@H](C(C)(C)C)NC1=O` here.
6.17

Supply recorded pEC50 for CC(=O)N[C@@H](CCCNC(=N)N)C(=O)N[C@H]1CSSC[C@@H](C(N)=O)NC(=O)[C@H](Cc2c[nH]c3ccccc23)NC(=O)[C@H](CCCNC(=N)N)NC(=O)[C@@H](Cc2ccccc2)NC(=O)[C@H](CC(N)=O)NC(=O)[C@@H](C)NC1=O [Compound 9] (Ac-RC[dA]N[dF]RWC-NH2; disulfide 2-8) here.
5.83

Numbers sourced from patent US10196425B2.
